Reported solubility by item:
experiment: Aqueous solubility; type: physicochemical; conditions: aqueous buffer, pH 5, aqueous buffer

COc1cccc2c(NCc3ccccc3)nc(-n3c(N)nc4ccccc43)nc12: 0.35 µg/mL

Find the recorded solubility belonging to "c1ccc(CNc2nc(N3CCOc4ccccc43)nc3c2CCCC3)cc1" and report it.
28 µg/mL

---

assay: Aqueous solubility; assay type: physicochemical; conditions: aqueous buffer, pH 7.4, aqueous buffer
property-label: solubility (µg/mL)
Numbers only here, please. The scale is µg/mL.

COc1cccc2c(NCc3ccccc3)nc(-n3c(N)nc4ccccc43)nc12: 0.27

Next item in the queue.
Find the recorded solubility belonging to "c1ccc(CNc2nc(N3CCOc4ccccc43)nc3c2CCCC3)cc1" and report it.
0.2

The measured values listed here are drawn from paper PMC3662613.
